SUBJECT OF TEST: Beta-lactamase L1 (Stenotrophomonas maltophilia, UniProt P52700)
Sequence (P52700 whole entry): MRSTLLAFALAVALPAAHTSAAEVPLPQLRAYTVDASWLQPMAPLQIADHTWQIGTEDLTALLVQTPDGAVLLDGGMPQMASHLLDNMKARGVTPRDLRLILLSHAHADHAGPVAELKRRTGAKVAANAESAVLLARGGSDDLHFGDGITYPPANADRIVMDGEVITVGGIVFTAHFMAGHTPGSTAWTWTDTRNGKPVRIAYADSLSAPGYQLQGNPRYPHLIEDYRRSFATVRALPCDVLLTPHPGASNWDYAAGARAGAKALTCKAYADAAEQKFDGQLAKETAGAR
TEST SUMMARY: Inhibition of Stenotrophomonas maltophilia L1 metallo beta lactamase
Lab note - cut at 200 nM for Ki: y if strictly below, n if not.

*Q* Hi there! Is Ki for O=C(NC(CCS)C(=O)N[C@H](Cc1ccccc1)C(=O)O)c1cc2cccc([N+](=O)[O-])c2[nH]1 (stereo partly drawn) below 200 nM, do you know?
*A* y

*Q* is_below(Ki, 200 nM) for Cc1cc(C(=O)NC(CCS)C(=O)N[C@H](Cc2ccccc2)C(=O)O)cc(C)c1O (stereo partly drawn) ?
*A* n

*Q* Decide: Ki of CCCCc1ccc(C(=O)NC(CCS)C(=O)N[C@H](Cc2ccccc2)C(=O)O)nc1 (stereo in doubt; 6) strictly below 200 nM?
*A* n

*Q* Does O=C(Cc1ccc(Br)cc1)NC(CCS)C(=O)N[C@H](Cc1ccccc1)C(=O)O (stereo partly drawn) have Ki strictly under 200 nM?
*A* n

*Q* Just wondering, is Ki of NC(=O)[C@@H](Cc1ccccc1)NC(=O)C(CCS)NC(=O)c1cc(O)cc(C(=O)O)c1 (single isomer, unassigned) below 200 nM?
*A* y

*Q* State whether 200 nM exceeds Ki recorded for NC(=O)[C@@H](Cc1ccccc1)NC(=O)C(CCS)NC(=O)c1cc(O)cc(C(=O)O)c1 (stereo in doubt; 95) .
*A* y

*Q* For O=C(NC(CCS)C(=O)N[C@H](Cc1ccccc1)C(=O)O)c1cc2cc(O)ccc2[nH]1 (stereo partly drawn) , is the recorded Ki below the cut-off of 200 nM?
*A* n

*Q* Is 200 nM strictly greater than the compound's reported Ki? compound: C[Si](C)(C)CCC(=O)NC(CCS)C(=O)N[C@H](Cc1ccccc1)C(=O)O (stereo partly drawn)
*A* n

*Q* Would you kindly verify if Ki of O=C(COc1cccc2ccccc12)NC(CCS)C(=O)N[C@H](Cc1ccccc1)C(=O)O (stereo partly drawn) is strictly less than 200 nM?
*A* n

*Q* Lab log: compare recorded Ki with 200 nM; is it strictly lower for O=C(O)c1cc(O)cc(C(=O)NC(CCS)C(=O)N[C@H](Cc2ccccc2)C(=O)O)c1 (stereo in doubt; 96) ?
*A* y

*Q* Say whether its Ki is strictly beneath 200 nM. Entry: O=C(CCC1CCCCC1)NC(CCS)C(=O)N[C@H](Cc1ccccc1)C(=O)O (stereo partly drawn)
*A* n

*Q* Hello, I'm reviewing records and need to know if Ki of O=C(NC(CCS)C(=O)N[C@H](Cc1ccccc1)C(=O)O)c1cc2ccccc2[nH]1 (stereo partly drawn) is below 200 nM. Could you check?
*A* n

*Q* Input O=C(NC(CCS)C(=O)N[C@H](Cc1ccccc1)C(=O)O)c1ccc(-c2ccccc2[N+](=O)[O-])o1 (stereo partly drawn) ; condition: Ki strictly below 200 nM. Does it hold?
*A* y

*Q* Ki under 200 nM? Item: O=C(NC(CCS)C(=O)N[C@H](Cc1ccccc1)C(=O)O)c1c[nH]c(=O)c(Cl)c1 (stereo partly drawn)
*A* n

*Q* Ki under 200 nM? Item: NC(=O)[C@@H](Cc1ccccc1)NC(=O)C(CCS)NC(=O)c1cccc(C(=O)O)n1 (stereo partly drawn)
*A* y

*Q* I wonder whether O=C(O)c1cc(O)cc(C(=O)NC(CCS)C(=O)N[C@H](Cc2ccccc2)C(=O)O)c1 (stereo in doubt; 49) has Ki below 200 nM. Can you tell?
*A* y

*Q* Answer whether the compound O=C(NC(CCS)C(=O)N[C@H](Cc1ccccc1)C(=O)O)c1cc2cc(F)ccc2[nH]1 (stereo partly drawn) has Ki strictly less than 200 nM
*A* y

*Q* # TODO verify Ki < 200 nM strictly for this compound: CCCCc1ccc(C(=O)NC(CS)C(=O)N[C@H](Cc2ccccc2)C(=O)O)nc1 (stereo partly drawn)
*A* n

*Q* Given CCCCc1ccc(C(=O)NC(CCS)C(=O)N[C@H](Cc2ccccc2)C(=O)O)nc1 (stereo in doubt; 91) , is recorded Ki strictly lower than 200 nM?
*A* n

*Q* Strictly below 200 nM in Ki? NC(=O)[C@@H](Cc1ccccc1)NC(=O)C(CCS)NC(=O)c1cc(O)cc(C(=O)O)c1 (single isomer, unassigned; diastereomer 1)
*A* y

*Q* Please check: Ki for CC(=O)Nc1ccc(CC(=O)NC(CCS)C(=O)N[C@H](Cc2ccccc2)C(=O)O)cc1[N+](=O)[O-] (stereo partly drawn) , strictly under 200 nM or not?
*A* n

*Q* Consider O=C(O)c1cccc(C(=O)NC(CCS)C(=O)N[C@H](Cc2ccccc2)C(=O)O)n1 (stereo in doubt; 84) . Does its Ki lie strictly below 200 nM?
*A* y

*Q* Does O=C(O)c1cccc(C(=O)NC(CCS)C(=O)N[C@H](Cc2ccccc2)C(=O)O)n1 (stereo in doubt; 94) have Ki strictly under 200 nM?
*A* y

*Q* Dear reviewer, please state whether O=C(Cc1cccc([N+](=O)[O-])c1)NC(CCS)C(=O)N[C@H](Cc1ccccc1)C(=O)O (stereo partly drawn) has Ki strictly beneath 200 nM.
*A* n

*Q* Dear colleague, could you confirm whether Ki of O=C(Cc1ccc(Br)cc1)NC(CS)C(=O)N[C@H](Cc1ccccc1)C(=O)O (stereo partly drawn) falls below 200 nM? Thanks.
*A* n

*Q* API: query returns whether the compound falls strictly under 200 nM in Ki. Query: O=C(Cc1cc([N+](=O)[O-])ccc1Cl)NC(CCS)C(=O)N[C@H](Cc1ccccc1)C(=O)O (stereo partly drawn)
*A* n
